Where these numbers come from: the supplement of paper PMC10567573

B1: PLAGL1 (parent)
chain: EKPPSGTKEKKHQCDHCERCFYTR

Variants of: B1
Experiment: protein stability index of a GFP-peptide fusion (GPS, HEK-293T) (PSI 1-6); higher = more stable;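 note: lentivirally expressed fusions sorted by FACS into six bins by GFP to DsRed ratio, PSI derived from sequencing read proportions per bin multiplied by bin number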
Conditions: c terminus: a fixed tail appended
Note to self: values exactly at 4 are True. So protein stability index at or above 4 is True, below is False.

Data request: Evaluate "R24M" : protein stability index at minimum 4?
Data returned: True

Data request: Evaluate "K11P" : protein stability index at minimum 4?
Data returned: False

Data request: Evaluate "E18V" : protein stability index at minimum 4?
Data returned: True

Data request: Evaluate "H12A" : protein stability index at minimum 4?
Data returned: False

Data request: Evaluate "R24K" : protein stability index at minimum 4?
Data returned: True

Data request: Evaluate "H16E" : protein stability index at minimum 4?
Data returned: True

Data request: Evaluate "G6T" : protein stability index at minimum 4?
Data returned: True

Data request: Evaluate "T7E" : protein stability index at minimum 4?
Data returned: False

Data request: Evaluate "Q13H" : protein stability index at minimum 4?
Data returned: False

Data request: Evaluate "R19W" : protein stability index at minimum 4?
Data returned: False

Data request: Evaluate "E9Q" : protein stability index at minimum 4?
Data returned: False

Data request: Evaluate "H12D" : protein stability index at minimum 4?
Data returned: False

Data request: Evaluate "C14N" : protein stability index at minimum 4?
Data returned: False

Data request: Evaluate "E9I" : protein stability index at minimum 4?
Data returned: False

Data request: Evaluate "C17H" : protein stability index at minimum 4?
Data returned: False

Data request: Evaluate "E9V" : protein stability index at minimum 4?
Data returned: False

Data request: Evaluate "T23H" : protein stability index at minimum 4?
Data returned: False

Data request: Evaluate "E18N" : protein stability index at minimum 4?
Data returned: False

Data request: Evaluate "K8R" : protein stability index at minimum 4?
Data returned: False

Data request: Evaluate "C20E" : protein stability index at minimum 4?
Data returned: False

Data request: Evaluate "T7W" : protein stability index at minimum 4?
Data returned: False

Data request: Evaluate "E9S" : protein stability index at minimum 4?
Data returned: False
